# test target: Nuclear factor erythroid 2-related factor 2 (Homo sapiens)
# procedure summary: Activation of Nrf2 (unknown origin) expressed in human HepG2 cells at 10 uM incubated for 6 hrs by ARE-driven luciferase reporter gene assay relative to untreated control
# Type: cell-based
measurement label: fold change (FC)

[1] CC(C)=CCc1c(O)c(CC=C(C)C)c2oc(-c3ccc(O)cc3)cc(=O)c2c1O
[2] C=C(C)[C@H](C)c1cc(/C=C/C(=O)c2ccc(O)cc2)c(OC)cc1O [LICOCHALCONE E]
[3] CC1(C)C=Cc2cc(-c3coc4cc(O)cc(O)c4c3=O)ccc2O1
Query: Exam item: list the entries in increasing order of fold change (FC). Please list the labels in the order you were asked to rank them.
Reply: 3, 1, 2
